Biological target: T1, HD-PTP(1–361;T145R) (human, UniProt Q9H3S7 1-361, T145R)
T1 sequence: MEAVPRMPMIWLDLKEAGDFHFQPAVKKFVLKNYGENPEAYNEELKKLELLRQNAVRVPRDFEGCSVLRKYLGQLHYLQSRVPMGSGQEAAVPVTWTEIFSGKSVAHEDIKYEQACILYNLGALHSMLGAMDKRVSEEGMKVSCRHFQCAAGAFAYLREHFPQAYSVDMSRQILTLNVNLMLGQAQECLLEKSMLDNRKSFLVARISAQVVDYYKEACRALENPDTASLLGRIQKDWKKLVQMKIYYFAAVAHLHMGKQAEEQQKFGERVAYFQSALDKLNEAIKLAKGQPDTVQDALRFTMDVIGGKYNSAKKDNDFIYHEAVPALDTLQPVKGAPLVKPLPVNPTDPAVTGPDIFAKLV
Test: ITC
pKd: −log10 of the molar value.

BINDER: KEEEDDDMKELENWAGSM [CHMP4B(207–224)]
pKd: 5.41
